Test system: Mo7e cells which endogenously express c-kit
EXPERIMENTAL DETAILS: Mo7e assay: inhibition of SCF dependent proliferation (MTT)
Assay type: cell-based
DETAILS: Table 1; SCF stimulated Mo7e cells, 48 hours, MTT
I'd be grateful if you could share measured IC50 for these entries.
Remember to put the unit after the number in your answer.

IN: What is its IC50 for Mo7e cells which endogenously express c-kit? Entry: `Cc1cc2c(cn1)cc(-c1cc(Nc3nc(C(C)C)no3)ccc1C)c(=O)n2C`
OUT: 181 nM

IN: Do the same for `Cc1cc2c(cn1)cc(-c1cc(Nc3noc([C@@H]4CCCCO4)n3)ccc1C)c(=O)n2C` please
OUT: 70 nM

IN: Do the same for Cc1cc2c(cn1)cc(-c1cc(Nc3noc(CC(C)O)n3)ccc1C)c(=O)n2C (stereo not shown) please
OUT: 294 nM

IN: Do the same for `COc1ccc(-c2nc(Nc3ccc(C)c(-c4cc5cnc(C)cc5n(C)c4=O)c3)no2)cn1` please
OUT: 95 nM

IN: Do the same for `Cc1cc2c(cn1)cc(-c1cc(Nc3noc(-c4ccc(F)cc4)n3)ccc1C)c(=O)n2C` please
OUT: 36 nM

IN: Do the same for Cc1cc2c(cn1)cc(-c1cc(Nc3noc(C4CC(C)(O)C4)n3)ccc1C)c(=O)n2C (stereo not shown) please
OUT: 176 nM

IN: Do the same for `Cc1cc2c(cn1)cc(-c1cc(Nc3cc(-c4ccc(Cl)cc4Cl)on3)ccc1C)c(=O)n2C` please
OUT: 401 nM

IN: Do the same for `Cc1cc2c(cn1)cc(-c1cc(Nc3noc(-c4ccc(Cl)cc4Cl)n3)ccc1C)c(=O)n2C` please
OUT: 262 nM

IN: Do the same for `COc1ccc(-c2nc(Nc3ccc(C)c(-c4cc5cnc(C)cc5n(C)c4=O)c3)no2)nc1` please
OUT: 82 nM

IN: Do the same for `Cc1cc2c(cn1)cc(-c1cc(Nc3noc(-c4cccnc4)n3)ccc1C)c(=O)n2C` please
OUT: 145 nM

IN: Do the same for `Cc1cc2c(cn1)cc(-c1cc(Nc3noc(-c4cccc(O)n4)n3)ccc1C)c(=O)n2C` please
OUT: 265 nM

IN: Do the same for `Cc1cccc(-c2nc(Nc3ccc(C)c(-c4cc5cnc(C)cc5n(C)c4=O)c3)no2)c1` please
OUT: 241 nM

IN: Do the same for `Cc1cc2c(cn1)cc(-c1cc(Nc3noc(-c4ccc(C(C)(F)F)nc4)n3)ccc1C)c(=O)n2C` please
OUT: 259 nM

IN: Do the same for `Cc1cc2c(cn1)cc(-c1cc(Nc3noc(-c4ccc(F)cn4)n3)ccc1C)c(=O)n2C` please
OUT: 82 nM

IN: Do the same for `Cc1cc2c(cn1)cc(-c1cc(Nc3noc(-c4cccnc4F)n3)ccc1C)c(=O)n2C` please
OUT: 244 nM

IN: Do the same for `Cc1cc2c(cn1)cc(-c1cc(Nc3nnc(C(C)C)o3)ccc1C)c(=O)n2C` please
OUT: 162 nM

====

Test system: Mo7e cells which endogenously express c-kit
EXPERIMENTAL DETAILS: Mo7e assay: inhibition of SCF dependent proliferation (MTT)
Assay type: cell-based
DETAILS: Table 1; SCF stimulated Mo7e cells, 48 hours, MTT
// bucketize IC50: low bin (below 100 nM), mid bin (100 nM to below 300 nM), high bin (300 nM or more)

IN: Class label required: Cc1cc2c(cn1)cc(-c1cc(Nc3nnc(CC(C)(C)C)[nH]3)ccc1C)c(=O)n2C [Compound C5]
OUT: high bin

IN: Do the same for Cc1cc2c(cn1)cc(-c1cc(Nc3noc(-c4ccc(C(C)(F)F)cc4)n3)ccc1C)c(=O)n2C [Compound A89] please
OUT: mid bin

IN: Do the same for COc1cc(C)ccc1-c1nc(Nc2ccc(C)c(-c3cc4cnc(C)cc4n(C)c3=O)c2)no1 [Compound A80] please
OUT: high bin

IN: Do the same for COc1ccc(-c2nc(Nc3ccc(C)c(-c4cc5cnc(C)cc5n(C)c4=O)c3)no2)cc1 [Compound A14] please
OUT: low bin

IN: Do the same for Cc1cc2c(cn1)cc(-c1cc(Nc3nnc(-c4cccc(Cl)c4)[nH]3)ccc1C)c(=O)n2C [Compound C7] please
OUT: high bin

IN: Do the same for Cc1cc2c(cn1)cc(-c1cc(Nc3cc(C(C)C)on3)ccc1C)c(=O)n2C [Compound D14] please
OUT: mid bin

IN: Do the same for Cc1cc2c(cn1)cc(-c1cc(Nc3noc(C(C)(C)C)n3)ccc1C)c(=O)n2C [Compound A30] please
OUT: mid bin

IN: Do the same for Cc1cc2c(cn1)cc(-c1cc(Nc3noc(C(C)(C)O)n3)ccc1C)c(=O)n2C [Compound A32] please
OUT: mid bin

IN: Do the same for COc1ccc(-c2nnc(Nc3ccc(C)c(-c4cc5cnc(C)cc5n(C)c4=O)c3)o2)cc1 [Compound B2] please
OUT: low bin

IN: Do the same for CCc1cc2c(cn1)cc(-c1cc(Nc3noc(-c4ccccn4)n3)ccc1C)c(=O)n2C [Compound A105] please
OUT: mid bin

IN: Do the same for Cc1cc2c(cn1)cc(-c1cc(Nc3nnc(-c4ccccc4)o3)ccc1C)c(=O)n2C [Compound B4] please
OUT: mid bin

IN: Do the same for Cc1cc2c(cn1)cc(-c1cc(Nc3noc(C(C)(F)F)n3)ccc1C)c(=O)n2C [Compound A54] please
OUT: mid bin

IN: Do the same for Cc1cc2c(cn1)cc(-c1cc(Nc3noc(CC(C)C)n3)ccc1C)c(=O)n2C [Compound A68] please
OUT: mid bin

IN: Do the same for Cc1cnc(-c2nc(Nc3ccc(C)c(-c4cc5cnc(C)cc5n(C)c4=O)c3)no2)cn1 [Compound A71] please
OUT: high bin

IN: Do the same for Cc1ccc(-c2nc(Nc3ccc(C)c(-c4cc5cnc(C)cc5n(C)c4=O)c3)no2)cc1 [Compound A13] please
OUT: low bin

====

Tested on: Mo7e cells which endogenously express c-kit
EXPERIMENTAL DETAILS: Mo7e assay: inhibition of SCF dependent proliferation (MTT)
Type: cell-based
DETAILS: Table 1; SCF stimulated Mo7e cells, 48 hours, MTT
I'd be grateful if you could share measured IC50 for these entries.
Remember to put the unit after the number in your answer.

IN: Item under review: `Cc1cc2c(cn1)cc(-c1cc(Nc3noc(-c4ccncc4)n3)ccc1C)c(=O)n2C` . Reported IC50?
OUT: 271 nM

IN: Do the same for `Cc1cc2c(cn1)cc(-c1cc(Nc3noc(-c4ncccc4C)n3)ccc1C)c(=O)n2C` please
OUT: 94 nM

IN: Do the same for Cc1cc2c(cn1)cc(-c1cc(Nc3cc(-c4ccc(OC(F)(F)F)cc4)on3)ccc1C)c(=O)n2C [Compound D2] please
OUT: 428 nM

IN: Do the same for Cc1cc2c(cn1)cc(-c1cc(Nc3noc(C(C)Oc4ccccc4)n3)ccc1C)c(=O)n2C (stereo not shown) please
OUT: 419 nM

====

System: Mo7e cells which endogenously express c-kit
EXPERIMENTAL DETAILS: Mo7e assay: inhibition of SCF dependent proliferation (MTT)
Assay type: cell-based
DETAILS: Table 1; SCF stimulated Mo7e cells, 48 hours, MTT
Param label: returns criterion met when IC50 < 300 nM, returns criterion not met otherwise, including exact equality.

IN: Please state whether IC50 is below 300 nM for `Cc1cc2c(cn1)cc(-c1cc(Nc3noc(-c4ccccc4Cl)n3)ccc1C)c(=O)n2C`
OUT: criterion met

IN: Do the same for `Cc1cc2c(cn1)cc(-c1cc(Nc3noc(-c4cccc(C)n4)n3)ccc1C)c(=O)n2C` please
OUT: criterion not met

IN: Do the same for Cc1cc2c(cn1)cc(-c1cc(Nc3noc(C4CCCN4C)n3)ccc1C)c(=O)n2C (stereo not shown) please
OUT: criterion met

IN: Do the same for `CC(=NO)c1cc(Nc2ccc(C)c(-c3cc4cnc(C)cc4n(C)c3=O)c2)no1` please
OUT: criterion not met

IN: Do the same for `CC(=O)c1ccc(-c2nc(Nc3ccc(C)c(-c4cc5cnc(C)cc5n(C)c4=O)c3)no2)cc1` please
OUT: criterion not met

IN: Do the same for `Cc1cc2c(cn1)cc(-c1cc(Nc3nnc(C(C)(C)C)o3)ccc1C)c(=O)n2C` please
OUT: criterion met

IN: Do the same for Cc1cc2c(cn1)cc(-c1cc(Nc3nc(-c4ccccn4)no3)ccc1C)c(=O)n2C [Compound E2] please
OUT: criterion met

IN: Do the same for `Cc1cc2c(cn1)cc(-c1cc(Nc3noc(-c4ccc(OC(F)(F)F)cc4)n3)ccc1C)c(=O)n2C` please
OUT: criterion met

IN: Do the same for `Cc1ccc(-c2nc(Nc3ccc(C)c(-c4cc5cnc(C)cc5n(C)c4=O)c3)no2)cn1` please
OUT: criterion met

IN: Do the same for `Cc1cc2c(cn1)cc(-c1cc(Nc3noc(-c4ccccc4)c3C)ccc1C)c(=O)n2C` please
OUT: criterion not met

IN: Do the same for `Cc1cc2c(cn1)cc(-c1cc(Nc3nnc(CC(C)C)o3)ccc1C)c(=O)n2C` please
OUT: criterion met

IN: Do the same for `Cc1cc2c(cn1)cc(-c1cc(Nc3noc(C4CC(=O)C4)n3)ccc1C)c(=O)n2C` please
OUT: criterion met

IN: Do the same for `Cc1cc2c(cn1)cc(-c1cc(Nc3noc(-c4csc(-c5cccnc5)n4)n3)ccc1C)c(=O)n2C` please
OUT: criterion not met

IN: Do the same for `Cc1cc2c(cn1)cc(-c1cc(Nc3noc(-c4ccc(C#N)cc4F)n3)ccc1C)c(=O)n2C` please
OUT: criterion met

IN: Do the same for `Cc1cc2c(cn1)cc(-c1cc(Nc3cc(-c4ccc(F)cc4)on3)ccc1C)c(=O)n2C` please
OUT: criterion met

This collection of values is drawn from patent US8278452B2.
